Each recorded value in this set is attributed to patent US20230295284A1.

Molecular target: FN-EIIIB
Sequence (chain, as listed by the source): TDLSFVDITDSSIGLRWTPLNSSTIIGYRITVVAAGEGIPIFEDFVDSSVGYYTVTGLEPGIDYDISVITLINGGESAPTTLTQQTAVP
Experiment: BLI
observation_type: pKd
Scale: pKd equals -log10([C]), with [C] in mol/L.

Using the record for LMJ2.5C (VHH, sortase-tagged with biotin in the Western blots ; Purified by a his-tag for BLI and sortase-tagged with biotin in the Western blots. The tag letters are not stated for the free nanobody, so they are left out.) VHH: QVQLVETGGGLVQAGGSLRLSCAASGSTFSHSAGGWYRQAPEKQRELVAGVRSDGNINYADSVKDRFTISRDNASNTMYLQMNNLKPEDTAVYVCNIRGSYGNTYYSRWGQGIQVTVSS , report its pKd.
10.11

Using the record for LMJ1.2G (VHH, sortase-tagged with biotin in the Western blots ; Purified by a his-tag for BLI and sortase-tagged with biotin in the Western blots. The tag letters are not stated for the free nanobody, so they are left out.) VHH: QVQLVETGGGLVQAGGSLRLSCAASGSTFSHSAGGWYRQAPEKQRELVAGIGSDGNINYADSVKDRFTISRDNASNTMYLQMNNLKPEDTAVYVCNIRGSYGNTYYSRWGQGTQVTVSS , report its pKd.
9.01

Using the record for LMJ2.5I (VHH, sortase-tagged with biotin in the Western blots ; Purified by a his-tag for BLI and sortase-tagged with biotin in the Western blots. The tag letters are not stated for the free nanobody, so they are left out.) VHH: RVQLVETGGGLVQAGGSLRLSCAVSGSTFSHSAGGWYRQAPEKQRELVAGIRSDGNINYADSVKDRFTISRDNASNTMYLQMNNLKPEDTAVYVCNIRGSYGNTYYSRWGQGAQVTVSS , report its pKd.
10.60

Using the record for LMJ1.2C (VHH, sortase-tagged with biotin in the Western blots ; Purified by a his-tag for BLI and sortase-tagged with biotin in the Western blots. The tag letters are not stated for the free nanobody, so they are left out.) VHH: QVQLVETGGGLVQAGGSLRLSCAASGSTFSHSAGGWYRQAPEKQRELVAGIRSDGNINYADSVKDRFTISRDNASNTMYLQMNNLKPEDTAVYVCNIRGSYGNTYYSRWGQGTQVTVSS , report its pKd.
9.52
